# systemUnderTest: Carbonic anhydrase 5A, mitochondrial (Homo sapiens)
# Sequence (P35218 whole entry): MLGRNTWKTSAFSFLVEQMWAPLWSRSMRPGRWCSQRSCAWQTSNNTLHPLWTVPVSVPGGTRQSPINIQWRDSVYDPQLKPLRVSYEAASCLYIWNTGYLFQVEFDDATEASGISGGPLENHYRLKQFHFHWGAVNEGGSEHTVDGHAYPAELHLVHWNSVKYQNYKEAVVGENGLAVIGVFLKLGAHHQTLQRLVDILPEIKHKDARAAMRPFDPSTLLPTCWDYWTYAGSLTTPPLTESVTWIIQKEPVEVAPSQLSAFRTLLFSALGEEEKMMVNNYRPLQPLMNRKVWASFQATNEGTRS
# assayName: Inhibition of human recombinant carbonic anhydrase 5a after 15 mins by stopped-flow CO2 hydration assay
recordedEndpoint: pKi
Recall that pKi is obtained by taking minus log10 of the concentration measured in molar.

pKi measured on `Cc1ccc(-c2cc(C(F)(F)F)nn2-c2ccc(S(N)(=O)=O)cc2)cc1` = 6.10

----------
# systemUnderTest: UniProt:Q9Y2D0
# Sequence (Q9Y2D0 whole entry): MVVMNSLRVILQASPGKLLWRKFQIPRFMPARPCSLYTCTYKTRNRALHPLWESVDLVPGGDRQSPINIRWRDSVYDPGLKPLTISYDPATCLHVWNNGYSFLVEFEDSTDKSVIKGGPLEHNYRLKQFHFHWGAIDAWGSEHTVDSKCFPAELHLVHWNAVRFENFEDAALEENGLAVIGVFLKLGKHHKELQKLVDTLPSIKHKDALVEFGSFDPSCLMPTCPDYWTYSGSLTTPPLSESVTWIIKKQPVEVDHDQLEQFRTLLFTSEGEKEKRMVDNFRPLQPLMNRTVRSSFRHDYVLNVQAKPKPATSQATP
recordedEndpoint: pKi
Formally, pKi is defined as -log10 of the concentration c, with c in mol/L.

pKi for Cc1ccc(-c2cc(C(F)(F)F)nn2-c2ccc(S(N)(=O)=O)cc2)cc1 [CELECOXIB] is 7.03
